# System: H929 cells
# EXPERIMENT DESCRIPTION: Cell viability assay (H929 10 FBS)
# Format: cell-based
# RUN PARAMETERS: Homo sapiens, NCI-H929, 24 h, CellTiter-Glo or ATPlite, read-out: H929_10FBS IC50
PROPERTY: IC50

stdin: Identify IC50 associated with the compound CCNC(=O)NS1(=O)=NC(=O)C(C)(C)OC/C=C/[C@H](OC)[C@@H]2CC[C@H]2CN2C[C@@]3(CCCc4cc(Cl)ccc43)COc3ccc1cc32 (some centres unmarked)
stdout: < 100 nM

stdin: Identify IC50 associated with the compound CO[C@H]1/C=C/COC(C)(C)C(=O)N=S(=O)(NC(=O)c2cnn(C)c2)c2ccc3c(c2)N(C[C@@H]2CC[C@H]21)C[C@@]1(CCCc2cc(Cl)ccc21)CO3 (some centres unmarked)
stdout: < 100 nM

stdin: Identify IC50 associated with the compound CO[C@H]1/C=C/COC(C)(C)C(=O)N=S(=O)(NC(=O)N2CC(N(C)C)C2)c2ccc3c(c2)N(C[C@@H]2CC[C@H]21)C[C@@]1(CCCc2cc(Cl)ccc21)CO3 (some centres unmarked)
stdout: < 100 nM

stdin: Identify IC50 associated with the compound COc1nn(C)cc1C(=O)NS1(=O)=NC(=O)C(C)(C)OC/C=C/[C@H](OC)[C@@H]2CC[C@H]2CN2C[C@@]3(CCCc4cc(Cl)ccc43)COc3ccc1cc32 (some centres unmarked)
stdout: < 100 nM

stdin: Identify IC50 associated with the compound CO[C@H]1/C=C/COC(C)(C)C(=O)N=S(=O)(NC(=O)C2CCOCC2)c2ccc3c(c2)N(C[C@@H]2CC[C@H]21)C[C@@]1(CCCc2cc(Cl)ccc21)CO3 (some centres unmarked)
stdout: < 100 nM
